# Tested on: nonfusion human umbilical vein endothelial cells (HUVEC)
# MEASUREMENT PROTOCOL: TMT quantitative proteomics on nonfusion HUVEC
# Assay type: cell-based
# MEASUREMENT CONDITIONS: 10 μM, number of proteins
Given measured Down-regulation, output class 1 if it is greater than or equal to 300 and class 0 if not.

// known answers, use as guide
[
  {
    "SMILES ENTRY": "CCOc1ccc(/C=C(/C(=O)O)c2cc(OC)c(OC)c(OC)c2)cc1O",
    "ASSAY SYSTEM": "nonfusion human umbilical vein endothelial cells (HUVEC)",
    "QUALITATIVE LABEL": "class 1"
  },
  {
    "SMILES ENTRY": "COc1cc(/C=C(/C(=O)O)c2cc(OC)c(OC)c(OC)c2)cc(OC)c1",
    "ASSAY SYSTEM": "nonfusion human umbilical vein endothelial cells (HUVEC)",
    "QUALITATIVE LABEL": "class 1"
  },
  {
    "SMILES ENTRY": "COc1cc(/C(=C\\c2cc(O)c(OC)c(F)c2)C(=O)O)cc(OC)c1OC",
    "ASSAY SYSTEM": "nonfusion human umbilical vein endothelial cells (HUVEC)",
    "QUALITATIVE LABEL": "class 1"
  }
]

Is Down-regulation for COc1cc(/C=C(/C(=O)O)c2cc(OC)c(OC)c(OC)c2)ccc1O at or above 300?
class 0

====

# Tested on: nonfusion human umbilical vein endothelial cells (HUVEC)
# MEASUREMENT PROTOCOL: TMT quantitative proteomics on nonfusion HUVEC
# Format: cell-based
# MEASUREMENT CONDITIONS: 10 μM, number of proteins
Parameter Down-regulation: see the listing below.
Could you keep your reply to the number by itself?

[
  {
    "COMPOUND": "COc1cc(/C=C(/C(=O)[O-])c2cc(OC)c(OC)c(OC)c2)cc(OC)c1F.[K+]",
    "Down-regulation": 309
  }
]

Read off the recorded Down-regulation for COc1ccc(/C=C(/C(=O)O)c2cc(OC)c(OC)c(OC)c2)c(O)c1O [Compound 1]
296

Read off the recorded Down-regulation for COc1ccc(/C=C(/C(=O)O)c2cc(OC)c(OC)c(OC)c2)cc1F
302

Read off the recorded Down-regulation for COc1cc(/C(=C\c2cc(O)c(OC)c(Cl)c2)C(=O)O)cc(OC)c1OC
297

Read off the recorded Down-regulation for COc1cc(/C(=C\c2cc(O)c(OC)c(O)c2)C(=O)O)cc(OC)c1OC
306
